Reported inhibition at 10 μM by item:
- STUDY_SYSTEM: CYP 3A4 (Homo sapiens, UniProt P08684)
- Construct: from tissue; host or cells: human liver microsomes
- Sequence (P08684 whole entry): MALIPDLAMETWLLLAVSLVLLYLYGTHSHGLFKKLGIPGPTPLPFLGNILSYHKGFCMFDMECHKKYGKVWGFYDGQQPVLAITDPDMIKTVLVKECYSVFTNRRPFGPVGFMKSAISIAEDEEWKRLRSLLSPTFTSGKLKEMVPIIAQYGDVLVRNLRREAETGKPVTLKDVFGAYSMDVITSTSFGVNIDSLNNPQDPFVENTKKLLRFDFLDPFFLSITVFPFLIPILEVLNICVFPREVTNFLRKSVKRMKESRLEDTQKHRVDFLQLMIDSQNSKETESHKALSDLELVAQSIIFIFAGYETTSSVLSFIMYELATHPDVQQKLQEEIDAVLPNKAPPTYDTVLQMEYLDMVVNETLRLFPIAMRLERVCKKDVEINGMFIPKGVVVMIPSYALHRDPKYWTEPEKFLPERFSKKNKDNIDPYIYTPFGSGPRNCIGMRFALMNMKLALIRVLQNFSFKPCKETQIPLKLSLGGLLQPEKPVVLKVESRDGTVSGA
- PROTOCOL_DETAILS: CYP inhibition in human liver microsomes, 3A4
- Type: in vitro ADME
- EXPERIMENTAL_CONDITIONS: pH 7.4, @ 10 μM concn
- Method: CYP Inhibition Studies: CYP inhibition studies were performed with test compounds, at two concentrations ([…] and 10 μM), using human liver microsomes (Yao, M., Zhu, M., Sinz, M. W., Zhang, H., Humphreys, W. F., Rodrigues, A. D and Dai, R., Journal of Pharmaceutical and Biomedical Analysis, 2007, 44, 211-223; Walsky, R. L and Obach, R. S., Drug Metab. Dispos., 2004, 32, 647-660). […]

Here are 5 compounds together with their reported answers.
| COMPOUND | inhibition at 10 μM |
| --- | --- |
| C=CC(=O)N1CC2CN(CCn3nc(-c4ccc(Oc5ccccc5)cc4)c4c(N)ncnc43)CC2C1 (centres unmarked) | < 50% |
| C=CC(=O)N1CC2CC(n3nc(-c4ccc5sccc5c4)c4c(N)ncnc43)CC2C1 (centres unmarked) | < 50% |
| C=CS(=O)(=O)N1CC2CC(n3c(=O)n(-c4ccc(Oc5ccccc5)cc4)c4c(N)ncnc43)CC2C1 (centres unmarked) | < 50% |
| C=CC(=O)N1CC2CC(n3nc(-c4ccc(C(=O)Nc5ccccn5)cc4)c4c(N)ncnc43)CC2C1 (centres unmarked) | < 50% |
| C#CC(=O)N1CC2CC(n3nc(-c4ccc(Oc5ccccc5)cc4)c4c(N)ncnc43)CC2C1 (centres unmarked) | < 50% |

Which inhibition at 10 μM reading was recorded for the compound C=CC(=O)N1CC2CC(n3nc(-c4ccc5nc(-c6ccccc6)oc5c4)c4c(N)ncnc43)CC2C1 (centres unmarked) ?
< 50%

Now this one: C=CC(=O)N1CC2CC(n3nc(-c4ccc(/C(=N/c5cc(C)ccn5)OC)cc4)c4c(N)ncnc43)CC2C1 (centres unmarked)
> 50%

Further, for C=CC(=O)N1CC2CC(n3nc(-c4ccc(C(=O)Nc5cnccn5)cc4)c4c(N)ncnc43)CC2C1 (centres unmarked) ?
< 50%

Again, but for C=CC(=O)N1CC2CC(n3nc(-c4ccc(-c5nnc(C)o5)cc4)c4c(N)ncnc43)CC2C1 (centres unmarked)
< 50%

Also, C=CC(=O)N1CC2CC(n3nc(-c4ccc(-c5nnc(-c6ccccn6)s5)cc4)c4c(N)ncnc43)CC2C1 (centres unmarked) please.
< 50%

Consider next the compound CN(C)C/C=C/C(=O)N1CC2CC(n3nc(-c4ccc(C(=O)Nc5cc(C(F)(F)F)ccn5)cc4)c4c(N)ncnc43)CC2C1 (centres unmarked) in the same way.
> 50%

* * *

- STUDY_SYSTEM: recombinant purified human BTK (Homo sapiens)
- Sequence (Q06187 whole entry): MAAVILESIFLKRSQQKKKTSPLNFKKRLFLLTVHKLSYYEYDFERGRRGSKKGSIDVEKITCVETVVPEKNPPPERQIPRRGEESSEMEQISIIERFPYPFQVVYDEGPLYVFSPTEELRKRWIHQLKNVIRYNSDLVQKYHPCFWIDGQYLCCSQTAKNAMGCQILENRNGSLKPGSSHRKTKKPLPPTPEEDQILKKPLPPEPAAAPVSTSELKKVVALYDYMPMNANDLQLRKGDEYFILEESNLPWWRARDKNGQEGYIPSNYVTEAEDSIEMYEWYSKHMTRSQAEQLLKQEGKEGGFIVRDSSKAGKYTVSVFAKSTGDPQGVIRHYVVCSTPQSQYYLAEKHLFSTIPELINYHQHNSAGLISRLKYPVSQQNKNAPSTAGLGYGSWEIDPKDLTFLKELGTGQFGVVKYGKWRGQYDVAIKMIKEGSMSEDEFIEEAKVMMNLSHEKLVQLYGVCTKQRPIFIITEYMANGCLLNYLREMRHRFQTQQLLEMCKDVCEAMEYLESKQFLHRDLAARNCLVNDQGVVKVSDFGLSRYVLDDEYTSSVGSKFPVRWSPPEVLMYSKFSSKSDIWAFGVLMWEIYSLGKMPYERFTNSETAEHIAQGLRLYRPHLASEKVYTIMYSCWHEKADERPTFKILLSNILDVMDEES
- PROTOCOL_DETAILS: In vitro BTK kinase assay on ADP Glo platform
- EXPERIMENTAL_CONDITIONS: 2 hr room temperature, read-out: In-vitro BTK inhibitory activity: IC50
VALUE_KIND: pIC50
Note on units: pIC50 is unitless, being -log10 of a concentration expressed in mol/L.

| COMPOUND | ASSAY_VALUE |
| --- | --- |
| C=CC(=O)N1CC2CC(n3nc(-c4ccc5nc(Oc6ccccc6)sc5c4)c4c(N)ncnc43)CC2C1 (stereo not drawn) | 6.65 |
| C=CC(=O)N1CC2CC(n3nc(-c4ccc5nc(-c6ccccc6)sc5c4)c4c(N)ncnc43)CC2C1 (stereo not drawn) | 8.85 |

Could you share which pIC50 value was measured for C=CC(=O)N1CC2CC(n3nc(-c4ccc(Oc5ccccc5)c(OC)c4)c4c(N)ncnc43)CC2C1 (stereo not drawn) ?
7.43

// same read-out, input: C=CC(=O)N1CC2CC(n3nc(-c4ccc5sccc5c4)c4c(N)ncnc43)CC2C1 (stereo not drawn)
8.77

What do you have for C=CC(=O)N1CC2CC(n3nc(-c4ccc(-c5cnn(C)c5)cc4)c4c(N)ncnc43)CC2C1 (stereo not drawn) ?
7.30
